# measurement.protocol: Metabolic stability in human liver microsomes assessed as parent compound remaining after 30 mins
# Type: ADME, Microsome
# reported.conditions: read-out: Stability
// assign 1 if remaining at 0.5 h falls strictly below 60%, else -1 (ties count as -1)

# example entries with known answers
>>> print(df.to_string())
                                   compound  group_label
0  CC1C(=O)N(Cc2ccc3ccccc3c2)c2c(/C=C/C(=O)NS(=O)(=O)c3cc(Cl)c(Cl)s3)cccc21 (stereo unspecified)            1
1  O=C(/C=C/c1cccc2c1N(Cc1ccc(Cl)cc1Cl)C(=O)C2(F)F)NS(=O)(=O)c1ccc(F)c(F)c1           -1
2  O=C(/C=C/c1cccc2c1N(Cc1ccc3ccccc3c1)C(=O)C2O)NS(=O)(=O)c1ccc(F)c(F)c1 (stereo unspecified)           -1
3  CC1C(=O)N(Cc2ccc3ccccc3c2)c2c(/C=C/C(=O)NS(=O)(=O)c3cccs3)cccc21 (stereo unspecified)            1
4  O=C(/C=C/c1cccc2c1N(Cc1ccc3ccccc3c1)C(=O)C2)NS(=O)(=O)c1ccc(Cl)c(Cl)c1           -1

Lookup: Hi there! Is remaining at 0.5 h for O=C(/C=C/c1cccc2c1N(Cc1ccc(Cl)cc1Cl)C(=O)C2(F)F)NS(=O)(=O)c1cccc(Cl)c1 below 60%, do you know?
Found: -1

Lookup: Hi there! Is remaining at 0.5 h for O=C(/C=C/c1cccc2c1N(Cc1ccc(Cl)cc1Cl)C(=O)C2)NS(=O)(=O)c1ccc(Cl)c(Cl)c1 below 60%, do you know?
Found: 1

---

# measurement.protocol: Metabolic stability in mouse liver microsomes assessed as parent compound remaining after 30 mins
# Assay type: ADME, Microsome
# reported.conditions: read-out: Stability
# remaining at 0.5 h per entry
Express the result in % but write the number alone.

Recorded remaining at 0.5 h (compound CC1C(=O)N(Cc2ccc3ccccc3c2)c2c(/C=C/C(=O)NS(=O)(=O)c3cc(Cl)c(Cl)s3)cccc21 (centres undefined) ): 67.7

Recorded remaining at 0.5 h (compound O=C(/C=C/c1cccc2c1N(Cc1ccc3ccccc3c1)C(=O)C2(F)F)NS(=O)(=O)c1cccc(Cl)c1 ): 21.6

Recorded remaining at 0.5 h (compound CC1C(=O)N(Cc2ccc3ccccc3c2)c2c(/C=C/C(=O)NS(=O)(=O)c3ccc(Cl)c(Cl)c3)cccc21 (centres undefined) ): 5.83

Recorded remaining at 0.5 h (compound O=C(/C=C/c1cccc2c1N(Cc1ccc(Cl)cc1Cl)C(=O)C2)NS(=O)(=O)c1ccc(Cl)c(Cl)c1 ): 56.1

---

# measurement.protocol: Metabolic stability in mouse liver microsomes assessed as parent compound remaining after 30 mins
# Format: ADME, Microsome
# reported.conditions: read-out: Stability
property.name: remaining at 0.5 h (%)
Express the result in % but write the number alone.

Below are worked cases with known answers.
>>> print(df.to_string())
                                   compound       property_name  experimental_value
0  CC1C(=O)N(Cc2ccc3ccccc3c2)c2c(/C=C/C(=O)NS(=O)(=O)c3cccc(Cl)c3)cccc21 (stereo unspecified)  remaining at 0.5 h                5.63
1  O=C(/C=C/c1cccc2c1N(Cc1ccc3ccccc3c1)C(=O)C2(F)F)NS(=O)(=O)c1cc(Cl)c(Cl)s1  remaining at 0.5 h                80.7
2  O=C(/C=C/c1cccc2c1N(Cc1ccc3ccccc3c1)C(=O)C2O)NS(=O)(=O)c1ccc(F)c(F)c1 (stereo unspecified)  remaining at 0.5 h                72.7

Recorded remaining at 0.5 h (compound O=C(/C=C/c1cccc2c1N(Cc1ccc(Cl)cc1Cl)C(=O)C2(F)F)NS(=O)(=O)c1ccc(Cl)c(Cl)c1 ): 82.8

Recorded remaining at 0.5 h (compound O=C(/C=C/c1cccc2c1N(Cc1ccc(Cl)cc1Cl)C(=O)C2(F)F)NS(=O)(=O)c1cccc(Cl)c1 ): 31.2

Recorded remaining at 0.5 h (compound O=C(/C=C/c1cccc2c1N(Cc1ccc(Cl)cc1Cl)C(=O)C2)NS(=O)(=O)c1cc(Cl)c(Cl)s1 ): 56.8

Recorded remaining at 0.5 h (compound O=C(/C=C/c1cccc2c1N(Cc1ccc3ccccc3c1)C(=O)C2O)NS(=O)(=O)c1ccc(F)cc1 (stereo unspecified) ): 83.4

Recorded remaining at 0.5 h (compound O=C(/C=C/c1cccc2c1N(Cc1ccc(Cl)cc1Cl)C(=O)C2(F)F)NS(=O)(=O)c1cc(Cl)c(Cl)s1 ): 100

Recorded remaining at 0.5 h (compound O=C(/C=C/c1cccc2c1N(Cc1ccc(Cl)cc1Cl)C(=O)C2)NS(=O)(=O)c1cccc(Cl)c1 ): 33.9

Recorded remaining at 0.5 h (compound O=C(/C=C/c1cccc2c1N(Cc1ccc3ccccc3c1)C(=O)C2O)NS(=O)(=O)c1cc(F)c(F)cc1F (stereo unspecified) ): 73.5

Recorded remaining at 0.5 h (compound CC1C(=O)N(Cc2ccc3ccccc3c2)c2c(/C=C/C(=O)NS(=O)(=O)c3cccs3)cccc21 (stereo unspecified) ): 32.6

Recorded remaining at 0.5 h (compound O=C(/C=C/c1cccc2c1N(Cc1ccc3ccccc3c1)C(=O)C2(F)F)NS(=O)(=O)c1ccc(F)c(F)c1 ): 47.1

Recorded remaining at 0.5 h (compound O=C(/C=C/c1cccc2c1N(Cc1ccc(Cl)cc1Cl)C(=O)C2(F)F)NS(=O)(=O)c1cc(F)c(F)cc1F ): 60.6

Recorded remaining at 0.5 h (compound CC1C(=O)N(Cc2ccc3ccccc3c2)c2c(/C=C/C(=O)NS(=O)(=O)c3cc(F)c(F)cc3F)cccc21 (stereo unspecified) ): 5.1

Recorded remaining at 0.5 h (compound O=C(/C=C/c1cccc2c1N(Cc1ccc(Cl)cc1Cl)C(=O)C2(F)F)NS(=O)(=O)c1ccc(F)c(F)c1 ): 71

Recorded remaining at 0.5 h (compound CC1C(=O)N(Cc2ccc(Cl)cc2Cl)c2c(/C=C/C(=O)NS(=O)(=O)c3cccc(Cl)c3)cccc21 (stereo unspecified) ): 7.26
